Every entry's value here was drawn from patent US20210380703A1.

- subjectOfTest: Mouse ACVR2A (mouse, UniProt P27038 20-135, limits assumed)
- Sequence (P27038 20-135 limits assumed): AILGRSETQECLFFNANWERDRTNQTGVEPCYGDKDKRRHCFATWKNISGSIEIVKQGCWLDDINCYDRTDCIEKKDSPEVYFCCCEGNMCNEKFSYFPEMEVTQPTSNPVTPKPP
- methodDescription: ELISA; further: test concentration or dose not given here
outcomeMeasure: optical density (OD)

| binder | number |
| --- | --- |
| 369_F05 (antibody, V domains shown, VH/VL only) VH: EVQLLESGGGLVQPGGSLRLSCAASGFTFSSYSMNWVRQAPGKGLEWVSGINYNGGYKSYADSVKGRFTISRDNSKNTLYLQMNSLRAEDTAVYYCARGATWHDTHLDYWGQGTLVTVSS VL: DIQMTQSPSSLSASVGDRVTITCRASQSISSYLNWYQQKPGKAPKLLIYAASSLQSGVPSRFSGSGSGTDFTLTISSLQPEDFATYYCQQGYDSPLTFGGGTKVEIK | 0.931 |
| 365_G11 (antibody, V domains shown, VH/VL only) VH: EVQLLESGGGLVQPGGSLRLSCAASGFTFSSYGMNWVRQAPGKGLEWVANINYNGGYTGYADSVKGRFTISRDNSKNTLYLQMNSLRAEDTAVYYCARSANWHDTALDYWGQGTLVTVSS VL: DIQMTQSPSSLSASVGDRVTITCRASQSIITYVNWYQQKPGKAPKLLIYAVTSRHSGVPSRFSGSGSGTDFTLTISSLQPEDFATYYCQQSYNSPLTFGGGTKVEIK | 1.78 |
| 376_G10 (antibody, V domains shown, VH/VL only) VH: EVQLLESGGGLVQPGGSLRLSCAASGFTFDSYGMNWVRQAPGKGLEWVAGINYNGGYTSYADSVKGRFTISRDNSKNTLYLQMNSLRAEDTAVYYCARGANWHDTALDYWGQGTLVTVSS VL: DIQMTQSPSSLSASVGDRVTITCRASQSILSYVNWYQQKPGKAPKLLIYAATSRASGVPSRFSGSGSGTDFTLTISSLQPEDFATYYCQQSYESPLTFGGGTKVEIK | 3.52 |
| 372_E08 (antibody, V domains shown, VH/VL only) VH: EVQLLESGGGLVQPGGSLRLSCAASGFTFSDYSMNWVRQAPGKGLEWVSNINYNGGYTSYADSVKGRFTISRDNSKNTLYLQMNSLRAEDTAVYYCARGATWHDTHLDYWGQGTLVTVSS VL: DIQMTQSPSSLSASVGDRVTITCRASQSIITYLNWYQQKPGKAPKLLIYAATSRASGVPSRFSGSGSGTDFTLTISSLQPEDFATYYCQQSYNLPLTFGGGTKVEIK | 2.82 |
| 368_C11 (antibody, V domains shown, VH/VL only) VH: EVQLLESGGGLVQPGGSLRLSCAASGFTFSDYSMNWVRQAPGKGLEWVSSINYNSGYKSYADSVKGRFTISRDNSKNTLYLQMNSLRAEDTAVYYCARGATWHDTHLDYWGQGTLVTVSS VL: DIQMTQSPSSLSASVGDRVTITCRASQSIISYLNWYQQKPGKAPKLLIYAATSRASGVPSRFSGSGSGTDFTLTISSLQPEDFATYYCQQSYDNPLTFGGGTKVEIK | 2.21 |
